Target chain: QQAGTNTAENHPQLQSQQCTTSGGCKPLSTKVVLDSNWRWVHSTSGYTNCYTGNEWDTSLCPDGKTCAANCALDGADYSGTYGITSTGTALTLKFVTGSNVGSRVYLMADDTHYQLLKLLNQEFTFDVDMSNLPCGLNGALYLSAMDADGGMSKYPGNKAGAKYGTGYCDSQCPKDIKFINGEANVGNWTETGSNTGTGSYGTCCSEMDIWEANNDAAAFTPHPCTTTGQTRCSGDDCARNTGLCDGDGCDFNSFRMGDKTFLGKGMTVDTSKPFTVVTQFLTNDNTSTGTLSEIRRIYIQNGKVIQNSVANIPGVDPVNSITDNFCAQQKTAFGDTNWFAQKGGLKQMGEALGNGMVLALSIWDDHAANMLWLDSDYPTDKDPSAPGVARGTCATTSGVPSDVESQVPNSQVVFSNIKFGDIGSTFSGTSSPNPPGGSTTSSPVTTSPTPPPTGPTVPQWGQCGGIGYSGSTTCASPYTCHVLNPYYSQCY
measurementKind: Kd (µM)
Reply with just the number (in µM).

Consider the compound O=[N+]([O-])c1ccccc1O[C@@H]1O[C@H](CO)[C@@H](O[C@@H]2O[C@H](CO)[C@@H](O)[C@H](O)[C@H]2O)[C@H](O)[C@H]1O [oNPC, o-nitrophenyl-β-D-cellobioside] and give its measured Kd.
110
